Listed here: items and their measured CC50/EC50.
Tested on: HCV replicon
Test summary: Anti-HCV assay / replicon assay (EC50, luciferase read-out)
Format: cell-based, hepatitis C virus (HCV)
Protocol conditions: CC50/EC50 ratio (selectivity index)

Ask | Can you look up the measured CC50/EC50 of Nc1nc(N2CCN(C(=O)COc3ccc(Cl)cc3)CC2)c2nc(-c3ccc(Cl)c(Cl)c3)ccc2n1 for me?
Reply | 211

Ask | For the molecule shown here, COc1nc(N)nc2ccc(-c3ccc(F)cc3)nc12 , give the reported CC50/EC50.
Reply | 434

Ask | Would you mind telling me what CC50/EC50 value was observed for COc1ccc(-c2ccc3nc(N)nc(NC4CCN(C(=O)OC(C)(C)C)CC4)c3n2)cc1OC ?
Reply | 70

Ask | Find the recorded CC50/EC50 belonging to Cc1ccc(-c2ccc3ncnc(N4CCN(C(=O)Nc5cccc(Cl)c5)CC4)c3n2)cc1C and report it.
Reply | 167

Ask | Which CC50/EC50 value belongs to CCSc1nc(N)nc2ccc(-c3ccc(F)cc3)nc12 ?
Reply | 154

Ask | Need CC50/EC50 of COc1ccc(-c2ccc3nc(C)nc(N4CCN(C(=O)Nc5cccc(C)c5)CC4)c3n2)cc1OC , thanks.
Reply | 98

Ask | Give its CC50/EC50 value. Item: COc1ccc(-c2ccc3nc(Nc4ccc(C)cc4)nc(N4CCN(C(=O)Nc5cccc(C)c5)CC4)c3n2)cc1OC
Reply | 339

Ask | Any idea what its CC50/EC50 is? The molecule is Nc1nc(N2CCN(C(=O)COc3ccc(Cl)cc3)CC2)c2nc(-c3ccsc3)ccc2n1
Reply | 1523

---

The entries below are paired with their reported EC50.
Tgt: HCV replicon
Test summary: Anti-HCV assay / replicon assay (EC50, luciferase read-out)
Format: cell-based, hepatitis C virus (HCV)
Protocol conditions: human hepatoma Huh-7 cell line harbouring a HCV replicon, 3 days, luciferase luminescence; read-out: EC50
Your answer should be a plain number; it is taken to be in nM.

INSERT INTO assay_data (mol_smiles, tgt, reported_value) VALUES
  ('CSc1nc(N)nc2ccc(-c3ccc(F)cc3)nc12', 'HCV replicon', 49),
  ('Cc1cccc(NC(=O)N2CCN(c3nc(N)nc4ccc(-c5ccc(Cl)c(Cl)c5)nc34)CC2)c1', 'HCV replicon', 9),
  ('COc1ccc(-c2ccc3nc(N)nc(N4CCN(C(=O)Nc5cccc(Cl)c5)CC4)c3n2)cc1OC', 'HCV replicon', 7),
  ('Nc1nc(N2CCN(C(=O)COc3ccc(Cl)cc3)CC2)c2nc(-c3ccc4c(c3)OCCO4)ccc2n1', 'HCV replicon', 9),
  ('O=C(Nc1cccc(Cl)c1)N1CCN(c2ncnc3ccc(-c4ccc5c(c4)OCO5)nc23)CC1', 'HCV replicon', 19);

Ask | Which measured EC50 value corresponds to Cc1cccc(NC(=O)N2CCN(c3nc(N)nc4ccc(-c5ccc(F)cc5)nc34)CC2)c1 ?
Reply | 6

Ask | Look up EC50: CCOc1nc(N)nc2ccc(-c3ccc(OC)c(OC)c3)nc12
Reply | 190

Ask | GET /values?readout=EC50&item= Nc1nc(N2CCS(=O)(=O)CC2)c2nc(-c3ccc(F)cc3)ccc2n1
Reply | 13

Ask | // query EC50 value for entry Nc1nc(N2CCN(C(=O)COc3ccc(Cl)cc3)CC2)c2nc(-c3cccc(Cl)c3)ccc2n1
Reply | 61

Ask | Which measured EC50 value corresponds to COc1cc(-c2ccc3ncnc(N4CCN(C(=O)Nc5cccc(Cl)c5)CC4)c3n2)ccc1OC(C)C ?
Reply | 35
